- Test system: rabbits
- assayRemarks: Anti-McGinty assay (antiprogestational activity, test compound plus progesterone)
- Type: in vivo, rabbit
- Design: key: McPhail scoring scale for progestational endometrial response
- appliedConditions: dose 3 micrograms; plus progesterone
readoutType: McPhail Index, Anti-McGinty Assay (Antagonist)

INSERT INTO measurements (compound, assayvalue) VALUES
  ('CC1=[N+]([O-])C2(CC1)CCC1C3CCC4=CC(=O)CCC4=C3C(c3ccc(N(C)C)cc3)CC12C (stereo not drawn) [II 4-Me2 N H O H -- CH3]', 1.9),
  ('CC(=O)c1ccc([C@H]2C[C@@]3(C)[C@@H](CC[C@]3(CCCO)[N+](=O)[O-])[C@@H]3CCC4=CC(=O)CCC4=C32)cc1 [I 4-CH3 CO H O H --(CH2)3 OH]', 2.43),
  ('CC#C[C@]1([N+](=O)[O-])CC[C@H]2[C@@H]3CCC4=CC(=O)CCC4=C3[C@@H](c3ccc(C(C)=O)cc3)C[C@@]21C [I 4-CH3 CO H O H --CC--CH3]', 2.47),
  ('CN(C)c1ccc([C@H]2C[C@@]3(C)[C@@H](CC[C@]3(CCCO)[N+](=O)[O-])[C@@H]3CCC4=CC(=O)CCC4=C32)cc1 [I 4-Me2 N H O H --(CH2)3 OH]', 1.87),
  ('CN(C)c1ccc([C@H]2C[C@@]3(C)[C@@H](CC[C@@]34CCC=[N+]4[O-])[C@@H]3CCC4=CC(=O)CCC4=C32)cc1 [II 4-Me2 N H O H -- H]', 1.83),
  ('CC(=O)c1ccc([C@H]2C[C@@]3(C)[C@@H](CC[C@]3(/C=C/CO)[N+](=O)[O-])[C@@H]3CCC4=CC(=O)CCC4=C32)cc1 [I 4-CH3 CO H O H CH=CHCH2 OH]', 1.76);
